Target: T1, human melanocortin 3 receptor (human, UniProt P41968 1-323)
T1 construct: whole, on cells; also called hMC3-R; MC3-R
T1 sequence (P41968 whole entry): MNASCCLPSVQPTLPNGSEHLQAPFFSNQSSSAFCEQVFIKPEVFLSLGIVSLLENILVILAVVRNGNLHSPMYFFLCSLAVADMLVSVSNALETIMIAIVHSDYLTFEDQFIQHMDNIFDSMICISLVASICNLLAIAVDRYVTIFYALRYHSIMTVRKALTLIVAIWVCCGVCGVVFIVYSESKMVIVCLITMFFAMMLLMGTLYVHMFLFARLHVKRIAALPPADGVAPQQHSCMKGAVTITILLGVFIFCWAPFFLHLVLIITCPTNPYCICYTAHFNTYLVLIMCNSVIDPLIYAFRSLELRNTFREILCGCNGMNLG
Experiment: radioligand competition, [I125]-NDP-α-MSH, hMC3-R membranes
Positions of bridges follow the written chain, without caps; N, C: chain ends. Non-standard residues stand in square brackets, D forms with d.
measured_quantity: Ki (nM)
Please state the figure in nM; there is no need to write the unit.

Request: Give its Ki value. Item: Ac-DH[dF]RWK-NHEt (lactam 1-6, also called Compound No. 40) [Ac-cyclo(-Asp-His-D-Phe-Arg-Trp-Lys)-NH-CH2-CH3]
Response: 84
